Parameter: OD. Scope: all listed entries.
# assay-system: recombinant soluble 1968 H3 HA (A/Aichi/2/1968) (Influenza A virus A/Aichi/2/1968 (H3N2), UniProt P03437 17-530)
# protocol-details: ELISA, supernate
Quick reminder: number only, in OD, skip the unit.

• mAb 18G6 (antibody, V domains shown) VH: QVQLKESGPGLVKPSETLSLTCTVSGGSISSSNYNWGWIRQPPGKGLEWIGSVYYSGSTYFNPSLKSRVTISVDTSKNQFSLKLTSVTAADTAVYYCARLIAFYYDTNGYTWGQGTLVTVS VL: NSIMTQSPFTLSASVGDKVTITCRASQSISPWLAWYQQKPGKAPKLLIYKASSLETGVPSRFSGSESGTEFTLTISGLQPDDFATYYCQQYSSFARTFGQGTKVEIKR = 0.073

Prompt: Record request: OD value, item mAb 25J3 (antibody, V domains shown) VH: QVQLQESGPGLVRPSETLSLTCNVSGDSINDYYWSWIRQPPGKGLEWIGYIYYSGSTNYNPSLNSRVTISVEMSKNQFSLILNSVTAADTAVYYCARVDYDSGGSFDPWGQGTLVTVS VL: QSVLTQPPSVSGAPGQRVTISCTGSSSNIGAGYDVHWYQQLPGTAPKLLIYGNSNRPSGVPDRFSGSKSGTSASLAITGLQAEDEADFYCQSYDSRLSGYVFGTGTKVTVLG
Response: 0.623

Prompt: Record request: OD value, item mAb 8F8 (antibody, V domains shown) VH: EVQLLESGGGVVQPGRSLRLSCAASGFMFSSYVMHWVRQPPGKGLEWVAVIWYDGSKTYFADSMRGRLTVSRDNSKNALYLQMNRLRAEDTAVYYCARQQDSGYSGPEVSYYSHYGMDVWGQGTTVIVS VL: QSVLTQSPSASGTPGRAITISCSGSSSNIGSNPVNWYQQLPGAAPKLLIYADEHRPSGVPDRFSGPKSGTSASLAISGLQSEDEADYYCAAWDDSLSGPAVVFGGGTKLTVLG
Response: 0.079
